Experiment: CCTE_Shafer_MEA_acute_burst_percentage_mean: CCTE's Neural Acute Assay for Percentage of Spikes in a Burst, Shafer Lab (AID 2284017)
Procedure: CCTE_Shafer_MEA_acute assay is conducted using Axion Biosystems 48 well microelectrode array (MEA) plates and Maestro recording system. Each well of the MEA plate contains a grid of 16 microelectrodes embedded in the culture surface. Electrically active cells, such as neurons, can be cultured over the electrodes, and electrical activity in these cells can be recorded extracellularly. […] The average of the burst percentages across electrodes is calculated to report a well-level value. […]
Activity calls are given as the source filed them. Rule for the calls: active = hit-call score of the fitted dose curve at least 0.9, where 1 is the maximum; inactive = score below 0.9.
Possible outcomes: true (1) for active, false (0) for inactive

Molecule	Assigned class
C=CC(C)(O)CCC=C(C)C (configuration not stated)	false (0)
CCCCCCC(CO)CCCC (configuration not stated)	true (1)
COCCc1ccc(OCC(O)CNC(C)C)cc1 (configuration not stated)	false (0)
CC1(C)CCC[C@]2(C)[C@H]3CCO[C@]3(C)CC[C@@H]12	false (0)
CN(C)C(=S)SC(=S)N(C)C	false (0)
CC(CN=Cc1ccccc1O)N=Cc1ccccc1O (configuration not stated)	false (0)
O=CN1CCOCC1	false (0)

* * *

Target: Aryl hydrocarbon receptor (Homo sapiens)
Experiment: ATG_Ahr_CIS: Attagene CIS-FACTORIAL HepG2 Assay for human Aryl Hydrocarbon Receptor (Ahr) (AID 2282930)
Conditions: HepG2 AhR cis-factorial reporter transcription; actives raise or lower the signal
Method: ATG_CIS is a cell-based, multiplexed-readout assay that uses HepG2, a human liver cell line, with measurements taken at 24 hours after chemical dosing in a 24-well plate.ATG_Ahr_CIS is one of 52 assay component(s) measured or calculated from the ATG_CIS assay. […] This assay endpoint, ATG_Ahr_CIS, was analyzed with bidirectional fitting relative to DMSO as the negative control and baseline of activity. […]
Calls of active or inactive are those of the source. How the source made its calls: active means hit-call score of the fitted dose curve at least 0.9, where 1 is the maximum; inactive means score below 0.9.
Labels: yes (1) = active, no (0) = inactive

Compound	Assigned class
OCC#CCO	no (0)
CCc1ccc(O)c(OC)c1	no (0)
CC(=O)c1ccccn1	no (0)
Nc1ccc2cc(S(=O)(=O)O)cc(O)c2c1N=Nc1ccccc1C(F)(F)F	yes (1)
OC[C@H]1O[C@@H](Oc2ccc(O)cc2)[C@H](O)[C@@H](O)[C@@H]1O	no (0)
CC(C)Nc1nc(N)nc(Cl)n1	no (0)
C=C1C[C@]23C[C@@]1(O)CC[C@H]2[C@@]12C=C[C@H](O)[C@@](C)(C(=O)O1)[C@H]2[C@@H]3C(=O)O	no (0)
CS(=O)(=O)OCCCCOS(C)(=O)=O	yes (1)
CCCC(O)C(O)CO (stereo not drawn)	yes (1)
CC(C)(C)C1=CC(=O)C(C(C)(C)C)=CC1=O	no (0)
Cc1cc(C)nc(NS(=O)(=O)c2ccc(N)cc2)n1	no (0)
C1=CC2C3C=CC(C3)C2C1 (stereo not drawn)	yes (1)
O=P(O)(O)O	no (0)

* * *

Test: ATG_NFI_CIS: Attagene CIS-FACTORIAL HepG2 Assay for human Nuclear Factor I (NFI) (AID 2282989)
Conditions: HepG2 cis-regulatory reporter, NFI response element transcription; actives raise or lower the signal
The source made the active and inactive calls. The calls were made as follows: active = hit-call score of the fitted dose curve at least 0.9, where 1 is the maximum; inactive = score below 0.9.

Query smiles	AC50
OC[C@H]1O[C@@H]2O[C@H]3[C@H](O)[C@@H](O)[C@@H](O[C@H]4[C@H](O)[C@@H](O)[C@@H](O[C@H]5[C@H](O)[C@@H](O)[C@@H](O[C@H]6[C@H](O)[C@@H](O)[C@@H](O[C@H]7[C@H](O)[C@@H](O)[C@@H](O[C@H]8[C@H](O)[C@@H](O)[C@@H](O[C@H]9[C@H](O)[C@@H](O)[C@@H](O[C@H]1[C@H](O)[C@H]2O)O[C@@H]9CO)O[C@@H]8CO)O[C@@H]7CO)O[C@@H]6CO)O[C@@H]5CO)O[C@@H]4CO)O[C@@H]3CO	inactive
CC(=O)Nc1ccc(C(=O)CCl)cc1	8.18 µM (active)
C=CC(=O)OCCC#N	inactive
OC[C@H]1O[C@@H](Oc2ccc(O)cc2)[C@H](O)[C@@H](O)[C@@H]1O	inactive
